Data provenance is patent US12473295B2.

TARGET: menin/MLL (terbium chelate-labeled menin, FITC-MBM1 peptide) (Homo sapiens (Human))
Sequence (O00255 other isoform, or with tags, fused parts or gaps): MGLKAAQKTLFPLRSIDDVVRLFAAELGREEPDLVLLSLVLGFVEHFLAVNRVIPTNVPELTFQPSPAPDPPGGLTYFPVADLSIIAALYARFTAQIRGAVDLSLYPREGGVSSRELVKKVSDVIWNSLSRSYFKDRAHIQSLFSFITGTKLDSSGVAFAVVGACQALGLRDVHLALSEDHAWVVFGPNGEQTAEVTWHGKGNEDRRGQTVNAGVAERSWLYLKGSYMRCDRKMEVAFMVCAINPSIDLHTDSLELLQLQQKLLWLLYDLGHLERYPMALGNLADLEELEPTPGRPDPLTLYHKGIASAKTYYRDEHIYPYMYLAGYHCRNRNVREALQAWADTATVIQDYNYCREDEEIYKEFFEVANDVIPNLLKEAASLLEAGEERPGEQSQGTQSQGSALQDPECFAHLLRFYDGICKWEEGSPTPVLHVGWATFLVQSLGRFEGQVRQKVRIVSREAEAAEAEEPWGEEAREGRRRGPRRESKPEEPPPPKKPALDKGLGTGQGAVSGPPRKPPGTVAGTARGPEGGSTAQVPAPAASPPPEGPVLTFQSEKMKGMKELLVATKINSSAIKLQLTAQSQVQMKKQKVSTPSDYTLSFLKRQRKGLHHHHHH
ASSAY SUMMARY: Menin/MLL homogenous time-resolved fluorescence (HTRF) assay;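 further: IC50 from percent inhibition of HTRF signal, normalized between wells without competitor and wells with a saturating competitor that displaces FITC-MBM1 from His-tagged menin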
Type: binding
EXPERIMENTAL PARAMETERS: HTRF-30 min incubation IC50, 30 min incubation
MEASURED PARAMETER: IC50 (pM)

- MOLECULE: "CCN(C(=O)c1cc(F)ccc1Oc1nncnc1N1CCC2(C1)CN([C@@H](C[C@@H](O)CN(C)C(C)C)C(C)C)C2)C(C)C (single isomer, unassigned)"
  MEASURED PARAMETER: "IC50"
  MEASURE UNIT: "pM"
  MEASURED RESULT: 18500

1 = CCNCC[C@H](C(C)C)N1CC2(CCN(c3ncnnc3Oc3ccc(F)cc3C(=O)N(CC)C(C)C)C2)C1 (single isomer, unassigned)
2 = CCN(C(=O)c1cc(F)ccc1Oc1nncnc1N1CCC2(C1)CN([C@H](CCCN(C)C(=O)OC(C)OC(=O)C(C)C)C(C)C)C2)C(C)C (some centres unmarked)
Input line: Compare reported IC50 values for 1 and 2 . Which is lower? Provide the label of your selected option as the answer.
Output line: 2

A = CCN(C(=O)c1cc(F)ccc1Oc1nncnc1N1CCC2(C1)CN([C@H](CCNCCCO)C(C)C)C2)C(C)C (single isomer, unassigned)
B = CC(C)[C@H](C[C@@H](O)CN(C)C)N1CC2(CCN(c3ncnnc3Oc3ccc(F)cc3C(=O)N(C(C)C)C(C)C)C2)C1 (single isomer, unassigned)
Input line: Compare reported IC50 values for A and B . Which is lower? Provide the label of your selected option as the answer.
Output line: A

P = CCN(C(=O)c1cc(F)ccc1Oc1nncnc1N1CCC2(C1)CN([C@@H](CCCCN(C)C)C(C)C)C2)C(C)C (single isomer, unassigned)
Q = CCN(C(=O)c1cc(F)ccc1Oc1nncnc1N1CCC2(C1)CN([C@H](CCCCN(C)C)C(C)C)C2)C(C)C (single isomer, unassigned)
Input line: Compare reported IC50 values for P and Q . Which is lower? Provide the label of your selected option as the answer.
Output line: Q

###

ASSAY SUMMARY: Mouse PK (in vivo T1/2 and oral bioavailability)
EXPERIMENTAL PARAMETERS: fasted male CD-1 mice, single IV 0.5 or 1.0 mg/kg, formulating agent HP-β-CD
Where a name gives a salt, the structure may show the parent alone.
MEASURED PARAMETER: half-life (h)

A = CCN(C(=O)c1cc(F)ccc1Oc1nncnc1N1CCC2(C1)CN([C@H](CCCNCC(OC)OC)C(C)C)C2)C(C)C.O=C(O)/C=C/C(=O)O [Compound 104]
B = CCN(C(=O)c1cc(F)ccc1Oc1nncnc1N1CCC2(C1)CN([C@H](CCCN)C(C)C)C2)C(C)C [Compound 1, formate]
C = CCN(C)C[C@H](O)C[C@H](C(C)C)N1CC2(CCN(c3ncnnc3Oc3ccc(F)cc3C(=O)N(CC)C(C)C)C2)C1.O=C(O)/C=C/C(=O)O (single isomer, unassigned) [Compound 346]
Input line: Order the above compounds by increasing half-life. Please list the labels according to the requested order.
Output line: C, A, B
(C: 5.2 h, A: 8.7 h, B: 15 h)

###

Tested on: KO-52 cells
ASSAY SUMMARY: Proliferation assay (spheroid growth, 8 days), KO-52 control cell line
Type: cell-based, human
EXPERIMENTAL PARAMETERS: Homo sapiens, […], read-out: spheroid assay_OneTime KO-52 IC50
pIC50: −log10 of the molar value. Structures can show the parent of a compound that is named as a salt.
// reported pIC50 per item

- COMPOUND: "CCN(CC)C[C@H](O)C[C@H](C(C)C)N1CC2(CCN(c3ncnnc3Oc3ccc(F)cc3C(=O)N(CC)C(C)C)C2)C1 (single isomer, unassigned)"
  MEASURED PARAMETER: "pIC50"
  MEASURED RESULT: "< 4.82"
- COMPOUND: "CCN(C(=O)c1cc(F)ccc1Oc1nncnc1N1CCC2(C1)CN(C(CC(C)(O)CN(C)CCOC)C(C)C)C2)C(C)C (stereo not drawn) [Compound 382, fumarate]"
  MEASURED PARAMETER: "pIC50"
  MEASURED RESULT: 4.93
- COMPOUND: "CC(C)[C@@H](CCCN(C)C)N1CC2(CCN(c3ncnnc3Oc3ccc(F)cc3C(=O)N(C(C)C)C(C)C)C2)C1 (single isomer, unassigned) [Compound 396]"
  MEASURED PARAMETER: "pIC50"
  MEASURED RESULT: 5.07
- COMPOUND: "CCN(C(=O)c1cc(F)ccc1Oc1nncnc1N1CCC2(C1)CN(C(CCNC(C)=O)C(C)C)C2)C(C)C (stereo not drawn)"
  MEASURED PARAMETER: "pIC50"
  MEASURED RESULT: "< 4.82"

Input line: Look up and state reported pIC50 for CCN(C(=O)c1cc(F)ccc1Oc1nncnc1N1CCC2(C1)CN([C@H](CCCCN(C)C)C(C)C)C2)C(C)C (single isomer, unassigned)
Output line: < 4.82

Input line: Look up and state reported pIC50 for CCOCCN(C)CCC[C@H](C(C)C)N1CC2(CCN(c3ncnnc3Oc3ccc(F)cc3C(=O)N(CC)C(C)C)C2)C1 [Compound 258, oxalate]
Output line: 5.26

Input line: Look up and state reported pIC50 for CC(C)[C@@H](C[C@H](O)CN(C)C)N1CC2(CCN(c3ncnnc3Oc3ccc(F)cc3C(=O)N(C(C)C)C(C)C)C2)C1 (single isomer, unassigned)
Output line: < 4.82

Input line: Look up and state reported pIC50 for CCN(C(=O)c1cc(F)ccc1Oc1nncnc1N1CCC2(C1)CN([C@H](CCNCCCOC)C(C)C)C2)C(C)C (single isomer, unassigned)
Output line: < 4.82

Input line: Look up and state reported pIC50 for CCN(C(=O)c1cc(F)ccc1Oc1nncnc1N1CCC2(C1)CN([C@H](CCCN(C)C(C)C)C(C)C)C2)C(C)C (single isomer, unassigned)
Output line: < 4.82

Input line: Look up and state reported pIC50 for CCN(C(=O)c1cc(F)ccc1Oc1nncnc1N1CCC2(C1)CN([C@H](CCCN(C)CCN(C)C(C)=O)C(C)C)C2)C(C)C [Compound 148, fumarate]
Output line: < 4.82

Input line: Look up and state reported pIC50 for CCN(C(=O)c1cc(F)ccc1Oc1nncnc1N1CCC2(C1)CN([C@H](CCCNC[C@H](O)COC)C(C)C)C2)C(C)C [Compound 284, formate]
Output line: < 4.82

Input line: Look up and state reported pIC50 for CCN(C(=O)c1cc(F)ccc1Oc1nncnc1N1CCC2(C1)CN([C@H](CCCN(C)CCCOC)C(C)C)C2)C(C)C [Compound 142, fumarate]
Output line: < 4.82

###

Tested on: KO-52 cells
ASSAY SUMMARY: Proliferation assay (spheroid growth, 8 days), KO-52 control cell line
Format: cell-based, human
EXPERIMENTAL PARAMETERS: Homo sapiens, […], read-out: spheroid assay_OneTime KO-52 IC50
Counter-ions that a name gives are not always drawn.
// reported IC50 per item

Example entries begin here.
- MOLECULE: "CCN(C(=O)c1cc(F)ccc1Oc1nncnc1N1CCC2(C1)CN([C@@H](CCCNC(C)=O)C(C)C)C2)C(C)C"
  IC50: "> 15 µM"
- MOLECULE: "CCN(C(=O)c1cc(F)ccc1Oc1nncnc1N1CCC2(C1)CN([C@H](CCNCCCO)C(C)C)C2)C(C)C (single isomer, unassigned)"
  IC50: "> 15 µM"
- MOLECULE: "CCN(C(=O)c1cc(F)ccc1Oc1nncnc1N1CCC2(C1)CN([C@H](CCCN(C)C[C@H](COC)OC)C(C)C)C2)C(C)C (single isomer, unassigned)"
  IC50: "> 15 µM"

Input line: Look up and state reported IC50 for CCN(C(=O)c1cc(F)ccc1Oc1nncnc1N1CCC2(C1)CN([C@H](CCCNC(C)=O)C(C)C)C2)C(C)C [Compound 6, formate]
Output line: > 15 µM

Input line: Look up and state reported IC50 for CCN(C(=O)c1cc(F)ccc1Oc1nncnc1N1CCC2(C1)CN([C@H](CCCN(C)CCC#N)C(C)C)C2)C(C)C
Output line: > 15 µM

Input line: Look up and state reported IC50 for CCN(C(=O)c1cc(F)ccc1Oc1nncnc1N1CCC2(C1)CN([C@H](CCCNCCC(F)F)C(C)C)C2)C(C)C.O=C(O)/C=C/C(=O)O
Output line: 1.69 µM

###

Test system: KO-52 cells
ASSAY SUMMARY: Proliferation assay (spheroid growth, 8 days), KO-52 control cell line
Format: cell-based, human
EXPERIMENTAL PARAMETERS: Homo sapiens, […], read-out: spheroid assay_OneTime KO-52 IC50
Where a name gives a salt, the structure may show the parent alone.
MEASURED PARAMETER: IC50

Example entries begin here.
- COMPOUND: "CCN(C(=O)c1cc(F)ccc1Oc1nncnc1N1CCC2(C1)CN([C@H](CCCN(C)C(C)CC(=O)N(C)C)C(C)C)C2)C(C)C (stereo partly drawn) [Compound 179, fumarate]"
  MEASURED RESULT: "> 15 µM"
- COMPOUND: "CCN(C(=O)c1cc(F)ccc1Oc1nncnc1N1CCC2(C1)CN([C@H](CCC(C)(C)NC)C(C)C)C2)C(C)C (single isomer, unassigned) [Compound 35, hydrochloride]"
  MEASURED RESULT: "> 15 µM"

Input line: Send back KO-52 cells IC50 of CCN(C(=O)c1cc(F)ccc1Oc1nncnc1N1CCC2(C1)CN([C@H](CCCN(C)CC(CO)OC)C(C)C)C2)C(C)C (stereo partly drawn) [Compound 170, fumarate] only.
Output line: > 15 µM

Input line: Send back KO-52 cells IC50 of CCN(C(=O)c1cc(F)ccc1Oc1nncnc1N1CCC2(C1)CN([C@H](CCCN(C)CCOC)C(C)C)C2)C(C)C only.
Output line: 6.85 µM

Input line: Send back KO-52 cells IC50 of CCN(C(=O)c1cc(F)ccc1Oc1nncnc1N1CCC2(C1)CN(C(CCN)C(C)C)C2)C(C)C (stereo not drawn) only.
Output line: > 15 µM

Input line: Send back KO-52 cells IC50 of CCN(C(=O)c1cc(F)ccc1Oc1nnc(Cl)nc1N1CCC2(C1)CN([C@H](CCCN(C)CCOC)C(C)C)C2)C(C)C [Compound 394, fumarate] only.
Output line: > 15 µM
